# assay-info: Plasma pharmacokinetics of belinostat and belinostat glucuronide (LC/MS/MS, noncompartmental analysis)
# protocol-conditions: human, plasma, iv, Cl (systemic clearance), cycle 1 day 1; dose level 2, belinostat 800 mg/m^2 IV (pevonedistat 25 mg/m^2); mean±SD, n=3
endpoint-name: clearance (mL/min)

[[record]]
molecule = "O=C(/C=C/c1cccc(S(=O)(=O)Nc2ccccc2)c1)NO [Belinostat]"
endpoint_name = "clearance"
measurement = 1380


====

# assay-info: Plasma pharmacokinetics of belinostat and belinostat glucuronide (LC/MS/MS, noncompartmental analysis)
# protocol-conditions: human, plasma, iv, preEOI Cmax (peak plasma concentration), cycle 1 day 1; dose level 1, belinostat 800 mg/m^2 IV (pevonedistat 20 mg/m^2); n=2, actual values
endpoint-name: Cmax (µM)

[[record]]
smiles_representation = "O=C(/C=C/c1cccc(S(=O)(=O)Nc2ccccc2)c1)NO"
readout_unit = "µM"
measurement = 109


====

# assay-info: Plasma pharmacokinetics of pevonedistat (LC/MS/MS, noncompartmental analysis)
# Format: in vivo, human
# protocol-conditions: cycle 1 day 1; dose level 1, pevonedistat 20 mg/m^2 IV (belinostat 800 mg/m^2); n=2, actual values; read-out: preEOI Cmax (peak plasma concentration)
# Protocol: Plasma was stored at − 80 °C until analysis. Pharmacokinetic parameters were summarized using descriptive statistics.
endpoint-name: Cmax (nM)

[[record]]
smiles_representation = "NS(=O)(=O)OC[C@@H]1C[C@@H](n2ccc3c(N[C@H]4CCc5ccccc54)ncnc32)C[C@@H]1O"
measurement = 311


====

# assay-info: Plasma pharmacokinetics of pevonedistat (LC/MS/MS, noncompartmental analysis)
# Assay type: in vivo, human
# protocol-conditions: human, plasma, iv, cycle 1 day 1; dose level 3, pevonedistat 37 mg/m^2 IV (belinostat 800 mg/m^2); mean±SD, n=3
endpoint-name: half-life (h)

[[record]]
smiles_representation = "NS(=O)(=O)OC[C@@H]1C[C@@H](n2ccc3c(N[C@H]4CCc5ccccc54)ncnc32)C[C@@H]1O"
endpoint_name = "half-life"
measurement = 5.97


====

# assay-info: Plasma pharmacokinetics of belinostat and belinostat glucuronide (LC/MS/MS, noncompartmental analysis)
# protocol-conditions: human, plasma, iv, AUCINF, cycle 1 day 1; dose level 5, belinostat 1000 mg/m^2 IV (pevonedistat 50 mg/m^2); mean±SD, n=4
endpoint-name: AUC(0-inf) (µM·h)

[[record]]
smiles_representation = "O=C(/C=C/c1cccc(S(=O)(=O)Nc2ccccc2)c1)NO"
measurement = 45.1


====

# assay-info: Plasma pharmacokinetics of belinostat and belinostat glucuronide (LC/MS/MS, noncompartmental analysis)
# protocol-conditions: human, plasma, iv
endpoint-name: Tmax

[[record]]
smiles_representation = "O=C(/C=C/c1cccc(S(=O)(=O)Nc2ccccc2)c1)NO"
measurement = "30 min"


====

# assay-info: Plasma pharmacokinetics of pevonedistat (LC/MS/MS, noncompartmental analysis)
# Assay type: in vivo, human
# protocol-conditions: human, plasma, iv, cycle 1 day 1; dose level 1, pevonedistat 20 mg/m^2 IV (belinostat 800 mg/m^2); n=2, actual values
endpoint-name: Tmax (min)

[[record]]
smiles_representation = "NS(=O)(=O)OC[C@@H]1C[C@@H](n2ccc3c(N[C@H]4CCc5ccccc54)ncnc32)C[C@@H]1O"
readout_unit = "min"
measurement = 24


====

# assay-info: Plasma pharmacokinetics of belinostat and belinostat glucuronide (LC/MS/MS, noncompartmental analysis)
# protocol-conditions: human, plasma, iv, 1000 mg/m2, AUCINF, cycle 1 day 1; belinostat 1000 mg/m^2 IV, all 1000 mg/m^2 patients (dose levels 4-5); mean±SD, n=7
endpoint-name: AUC(0-inf) (µM·h)

[[record]]
compound = "O=C(/C=C/c1cccc(S(=O)(=O)Nc2ccccc2)c1)NO [Belinostat]"
readout_unit = "µM·h"
measurement = 51.6


====

# assay-info: Plasma pharmacokinetics of pevonedistat (LC/MS/MS, noncompartmental analysis)
# Assay type: in vivo, human
# protocol-conditions: human, plasma, iv, cycle 1 day 1; dose level 4, pevonedistat 37 mg/m^2 IV (belinostat 1000 mg/m^2); mean±SD, n=3; read-out: preEOI Cmax (peak plasma concentration)
endpoint-name: Cmax

[[record]]
smiles_representation = "NS(=O)(=O)OC[C@@H]1C[C@@H](n2ccc3c(N[C@H]4CCc5ccccc54)ncnc32)C[C@@H]1O"
measurement = "841 nM"


====

# assay-info: Plasma pharmacokinetics of belinostat and belinostat glucuronide (LC/MS/MS, noncompartmental analysis)
# protocol-conditions: read-out: preEOI Cmax (peak plasma concentration); cycle 1 day 1; belinostat 800 mg/m^2 IV, all 800 mg/m^2 patients (dose levels 1-3); mean±SD, n=8
endpoint-name: Cmax (µM)

[[record]]
smiles_representation = "O=C(/C=C/c1cccc(S(=O)(=O)Nc2ccccc2)c1)NO"
endpoint_name = "Cmax"
measurement = 123


====

# assay-info: Plasma pharmacokinetics of belinostat and belinostat glucuronide (LC/MS/MS, noncompartmental analysis)
# protocol-conditions: human, plasma, iv, 1000 mg/m2, T1/2, cycle 1 day 1; belinostat 1000 mg/m^2 IV, all 1000 mg/m^2 patients (dose levels 4-5); mean±SD, n=7
endpoint-name: half-life

[[record]]
smiles_representation = "O=C(/C=C/c1cccc(S(=O)(=O)Nc2ccccc2)c1)NO"
measurement = "53.4 min"


====

# assay-info: Plasma pharmacokinetics of pevonedistat (LC/MS/MS, noncompartmental analysis)
# Type: in vivo, human
# protocol-conditions: human, plasma, iv, cycle 1 day 1; dose level 3, pevonedistat 37 mg/m^2 IV (belinostat 800 mg/m^2); median (range; n)
endpoint-name: Tmax (min)

[[record]]
smiles_representation = "NS(=O)(=O)OC[C@@H]1C[C@@H](n2ccc3c(N[C@H]4CCc5ccccc54)ncnc32)C[C@@H]1O"
readout_unit = "min"
measurement = 54


====

# assay-info: Plasma pharmacokinetics of pevonedistat (LC/MS/MS, noncompartmental analysis)
# Assay type: in vivo, human
# protocol-conditions: human, plasma, iv, cycle 1 day 1; dose level 2, pevonedistat 25 mg/m^2 IV (belinostat 800 mg/m^2); mean±SD, n=3
endpoint-name: AUC(0-inf) (nM·h)

[[record]]
molecule = "NS(=O)(=O)OC[C@@H]1C[C@@H](n2ccc3c(N[C@H]4CCc5ccccc54)ncnc32)C[C@@H]1O [Pevonedistat]"
measurement = 2950


====

# assay-info: Plasma pharmacokinetics of pevonedistat (LC/MS/MS, noncompartmental analysis)
# Type: in vivo, human
# protocol-conditions: human, plasma, iv, cycle 1 day 1; dose level 1, pevonedistat 20 mg/m^2 IV (belinostat 800 mg/m^2); n=2, actual values; read-out: Cl (systemic clearance) (converted)
endpoint-name: clearance (mL/min)

[[record]]
compound = "NS(=O)(=O)OC[C@@H]1C[C@@H](n2ccc3c(N[C@H]4CCc5ccccc54)ncnc32)C[C@@H]1O [Pevonedistat]"
measurement = 627


====

# assay-info: Plasma pharmacokinetics of belinostat and belinostat glucuronide (LC/MS/MS, noncompartmental analysis)
# protocol-conditions: human, plasma, iv, T1/2, cycle 1 day 1; dose level 4, belinostat 1000 mg/m^2 IV (pevonedistat 37 mg/m^2); mean±SD, n=3
endpoint-name: half-life

[[record]]
smiles_representation = "O=C(/C=C/c1cccc(S(=O)(=O)Nc2ccccc2)c1)NO"
endpoint_name = "half-life"
measurement = "1.02 h"


====

# assay-info: Plasma pharmacokinetics of pevonedistat (LC/MS/MS, noncompartmental analysis)
# Type: in vivo, human
# protocol-conditions: human, plasma, iv, cycle 1 day 1; dose level 2, pevonedistat 25 mg/m^2 IV (belinostat 800 mg/m^2); median (range; n)
endpoint-name: Tmax (min)

[[record]]
smiles_representation = "NS(=O)(=O)OC[C@@H]1C[C@@H](n2ccc3c(N[C@H]4CCc5ccccc54)ncnc32)C[C@@H]1O"
readout_unit = "min"
measurement = 36


====

# assay-info: Plasma pharmacokinetics of belinostat and belinostat glucuronide (LC/MS/MS, noncompartmental analysis)
# protocol-conditions: read-out: preEOI Cmax (peak plasma concentration); cycle 1 day 1; dose level 3, belinostat 800 mg/m^2 IV (pevonedistat 37 mg/m^2); mean±SD, n=3
endpoint-name: Cmax (µM)

[[record]]
molecule = "O=C(/C=C/c1cccc(S(=O)(=O)Nc2ccccc2)c1)NO [Belinostat]"
measurement = 125


====

# assay-info: Plasma pharmacokinetics of belinostat and belinostat glucuronide (LC/MS/MS, noncompartmental analysis)
# protocol-conditions: human, plasma, iv, T1/2, cycle 1 day 1; dose level 1, belinostat 800 mg/m^2 IV (pevonedistat 20 mg/m^2); n=2, actual values
endpoint-name: half-life (min)

[[record]]
smiles_representation = "O=C(/C=C/c1cccc(S(=O)(=O)Nc2ccccc2)c1)NO"
endpoint_name = "half-life"
measurement = 35.4


====

# assay-info: Plasma pharmacokinetics of belinostat and belinostat glucuronide (LC/MS/MS, noncompartmental analysis)
# protocol-conditions: human, plasma, iv, 800 mg/m2, T1/2, cycle 1 day 1; belinostat 800 mg/m^2 IV, all 800 mg/m^2 patients (dose levels 1-3); mean±SD, n=7
endpoint-name: half-life (h)

[[record]]
smiles_representation = "O=C(/C=C/c1cccc(S(=O)(=O)Nc2ccccc2)c1)NO"
measurement = 1.13


====

# assay-info: Plasma pharmacokinetics of belinostat and belinostat glucuronide (LC/MS/MS, noncompartmental analysis)
# protocol-conditions: human, plasma, iv, 800 mg/m2, Cl (systemic clearance), cycle 1 day 1; belinostat 800 mg/m^2 IV, all 800 mg/m^2 patients (dose levels 1-3); mean±SD, n=7
endpoint-name: clearance (mL/min)

[[record]]
smiles_representation = "O=C(/C=C/c1cccc(S(=O)(=O)Nc2ccccc2)c1)NO"
measurement = 1290

